target_desc: T1, soluble Macaca fascicularis CTLA-4 expressed with a C-terminal myc-myc-polyhistidine tag (Macaca fascicularis)
T1 construct: soluble protein; also called mf CTLA-4.mmh; mfCTLA4.mmh
T1 chain: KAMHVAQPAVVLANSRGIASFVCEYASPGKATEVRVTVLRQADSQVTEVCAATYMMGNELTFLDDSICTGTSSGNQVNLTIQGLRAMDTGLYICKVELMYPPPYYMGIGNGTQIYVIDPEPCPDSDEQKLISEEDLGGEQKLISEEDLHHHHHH
experiment_notes: SPR, mAb capture, 25 C
measured_metric: koff (s⁻¹)
Could you give me the number in s⁻¹? Just the number is fine.

Consider the following illustrative entries.
binder | koff (s⁻¹)
H1H19284P (antibody, human IgG1, V domains shown) VH: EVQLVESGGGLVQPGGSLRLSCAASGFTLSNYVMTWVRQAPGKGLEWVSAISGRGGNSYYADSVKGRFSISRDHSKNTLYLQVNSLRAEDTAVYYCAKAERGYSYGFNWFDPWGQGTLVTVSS VL: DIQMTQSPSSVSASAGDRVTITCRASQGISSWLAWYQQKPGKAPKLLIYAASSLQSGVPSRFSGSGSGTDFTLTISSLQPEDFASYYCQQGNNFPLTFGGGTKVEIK | 0.000305
H1H19280P (antibody, human IgG1, V domains shown) VH: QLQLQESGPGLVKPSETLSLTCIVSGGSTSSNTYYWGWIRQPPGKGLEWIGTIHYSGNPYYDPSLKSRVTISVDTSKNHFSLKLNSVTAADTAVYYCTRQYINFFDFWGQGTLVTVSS VL: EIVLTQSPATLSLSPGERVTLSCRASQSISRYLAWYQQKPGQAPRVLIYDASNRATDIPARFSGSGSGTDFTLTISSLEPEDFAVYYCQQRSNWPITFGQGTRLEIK | 0.000309

Now, please, on to the next binder.
The reported value for H1H19303P (antibody, human IgG1, kappa, V domains shown, also called REGN4659) VH: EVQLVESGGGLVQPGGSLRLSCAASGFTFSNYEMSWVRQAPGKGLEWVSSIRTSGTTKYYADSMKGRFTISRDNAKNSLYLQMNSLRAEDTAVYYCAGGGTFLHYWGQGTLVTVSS VL: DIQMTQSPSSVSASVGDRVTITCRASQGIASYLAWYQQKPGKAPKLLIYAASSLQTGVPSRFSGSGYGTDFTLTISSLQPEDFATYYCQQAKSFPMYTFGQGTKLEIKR in terms of koff is 0.00245
